Below are Ki values recorded for UniProt:P35372.
Sequence (P35372 whole entry): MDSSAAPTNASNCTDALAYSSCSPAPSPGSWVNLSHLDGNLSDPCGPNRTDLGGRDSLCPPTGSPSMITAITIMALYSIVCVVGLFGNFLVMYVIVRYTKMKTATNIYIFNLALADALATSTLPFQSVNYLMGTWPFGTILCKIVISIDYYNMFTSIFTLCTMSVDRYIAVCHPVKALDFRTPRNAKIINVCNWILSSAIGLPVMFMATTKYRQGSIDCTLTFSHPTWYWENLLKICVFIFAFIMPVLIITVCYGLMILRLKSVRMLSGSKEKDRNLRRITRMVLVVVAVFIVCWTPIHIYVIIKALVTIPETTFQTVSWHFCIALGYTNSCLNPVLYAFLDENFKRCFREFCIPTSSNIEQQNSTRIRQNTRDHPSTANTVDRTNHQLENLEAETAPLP
Write it as a number; the unit nM goes unstated.

Here's what some known entries look like.
CCN(CC)C(=O)c1ccc(C2(c3cccc(O)c3)CCN(CCc3ccccc3)CC2)cc1: 66.5
CCN(CC)C(=O)c1ccc(C2(c3cccc(O)c3)CCCN(CC3CC3)C2)cc1 (centres undefined): 35
CC(C)(O)c1ccc(C2(c3cccc(O)c3)CCCN(CC3CC3)C2)cc1 (centres undefined): 110

Kindly review the next compound as well.
Looking for the measured Ki of CCCC(C)CN1CCC(c2ccc(C(O)(CC)CC)cc2)(c2cccc(C(N)=O)c2)CC1 (centres undefined) , can you help? 380
